- TESTED_TARGET: S protein of the novel coronavirus SARS-CoV-2 (SARS-CoV-2, UniProt P0DTC2 14-1273)
- METHOD_DESCRIPTION: cell-based or functional assay
Please respond with reported IC50 for neutralizing SARS-CoV-2 pseudovirus (Huh-7 cells, luciferase) for every item in the list.

Recorded IC50 for neutralizing SARS-CoV-2 pseudovirus (Huh-7 cells, luciferase), per entry:
BINDER | RESULT
ABU-392 (antibody, V domains shown) VH: EVQLVESGGGLIQPGGSLRLSCAASEFIVSRNYMSWVRQAPGKGLEWVSVIYSGGSTYYADSVKGRFTISRDNSKNTLNLQMNSLRAEDTAVYYCARDYGDYYFDYWGQGTLVTVSS VL: EIVLTQSPGTLSLSPGERATLSCRASQGVSSFLAWYQQKPGQAPRLLIHGASSRATGIPDRFSGSGSGTDFTLTITRLEPEDFAVYYCQQYGSSPRTFGQGTKVEIK | < 0.1 µg/mL
ABU-367 (antibody, V domains shown) VH: EVQLVESGGGLIQPGGSLRLSCAASGIIVSSNYMTWVRQAPGKGLEWVSVIYSGGSTFYADSVKGRFTISRDNSKNTLYLQMSSLRAEDTAVYYCARDLGPYGMDVWGQGTTVTVSS VL: DIQLTQSPSFLSASVGDRVTITCRASQGISSDLAWYQQKPGKAPNLLIYAASTLQSGVPSRFSGSGSGTEFTLTISSLQPEDFATYYCQQLNSDLYTFGQGTKLEIK | < 0.1 µg/mL
ABU-355 (antibody, V domains shown) VH: EVQLVESGGGLVQPGGSLRLSCAASGITVRSNYMSWVRQAPGKGLEWVSVIYSGGSTFYADSVKGRFTISRDNSKNTLYLQMNSLRAEDTAVYYCARDLISRGMDVWGQGTTVTVSS VL: DIQLTQSPSSLSASVGDRVTITCRASQGISSYLAWYQQKPGKAPKLLIYAASTLQSGVPSRFSGSGSGTDFTLTISSLQPEDFATYYCQQLNGYPHSAFGPGTKVDIK | < 0.1 µg/mL
ABU-340 (antibody, V domains shown) VH: EVQLVESGGGLVQPGGSLRLSCAASGFTVSSNYMNWVRQAPGKGLEWVSVIYSGGSTYYADSVKGRFTLSRDNSKNTLYLQMNSLRAEDTAVYYCARGQYDILTGYQYGAFDIWGQGTMVTVSS VL: QSALTQPASVSGSPGQSITISCTGTSSDVGTYNLVSWYQQHPGKAPKLMIYEVSKRPSGVSNRFSGSKSGNTASLTISGLQAEDEADYYCCTYAGSSTWVFGGGTKLTVL | < 0.5 µg/mL

Q: Provide one value: measured IC50 for neutralizing SARS-CoV-2 pseudovirus (Huh-7 cells, luciferase) of ABU-344 (antibody, V domains shown) VH: QVQLVQSGAEVKKPGSSVKVSCKASGGTFSSYTISWVRQAPGQGLEWMGRIIPILGIANYAQKFQGRVTITADKSTSTAYMELSSLRSEDTAVYYCARERGYSGSGSLYYFDYWGQGTLVTVSS VL: QSVLTQPPSVSGAPGQRVTISCTGSNSNIGAGYDVHWYQQLPGTAPKLLIYVNTNRPSGVPDRFSGSKSGTSASLAITGLQAEDEAHYYCQSYDSSLSGSVFGGGTKLTVL
Ans: < 1 µg/mL
